Measured glycan array binding signal (z-score) of individual entries
experimental target: GlcNAc(b1-2)[GlcNAc(b1-6)]Man(a1-6)[GlcNAc(b1-2)Man(a1-3)]Man(b1-4)GlcNAc(b1-4)[Fuc(a1-6)]GlcNAc
test: glycan array binding signal (z-score within array); higher = stronger binding
test conditions: glycan notation: IUPAC condensed, linker removed
Only a selection was taken, and the strongest signals are over-represented in it overall.
Hey, just send me the number, nothing else.

Previously resolved entries follow.
binder | glycan array binding signal (z-score)
Tp0751, 83732 (protein) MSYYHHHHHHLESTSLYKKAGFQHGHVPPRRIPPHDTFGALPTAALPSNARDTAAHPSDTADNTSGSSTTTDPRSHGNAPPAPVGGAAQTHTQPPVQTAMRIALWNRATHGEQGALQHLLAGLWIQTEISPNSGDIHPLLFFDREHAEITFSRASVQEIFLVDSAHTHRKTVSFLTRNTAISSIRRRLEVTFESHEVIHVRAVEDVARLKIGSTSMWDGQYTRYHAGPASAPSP | 0.781
Pwp6 (Candida glabrata) (protein) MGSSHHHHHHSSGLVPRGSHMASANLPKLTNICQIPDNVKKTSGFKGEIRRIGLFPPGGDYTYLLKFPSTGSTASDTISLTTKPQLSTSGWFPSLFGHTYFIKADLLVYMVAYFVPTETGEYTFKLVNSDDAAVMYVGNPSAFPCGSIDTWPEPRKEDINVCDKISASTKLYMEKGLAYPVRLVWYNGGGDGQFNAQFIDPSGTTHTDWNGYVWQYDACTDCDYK | 0.023

Query :: Any idea what its glycan array binding signal (z-score) is? The binder is Pbx2CASH domain (Cryptococcus neoformans) (protein) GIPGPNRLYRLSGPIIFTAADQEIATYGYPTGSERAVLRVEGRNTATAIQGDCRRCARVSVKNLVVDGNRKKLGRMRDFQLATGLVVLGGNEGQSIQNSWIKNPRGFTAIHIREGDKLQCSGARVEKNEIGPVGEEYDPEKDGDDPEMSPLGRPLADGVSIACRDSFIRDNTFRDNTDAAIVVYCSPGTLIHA
Result :: -0.071
